Biological target: human ERK-2 (Mitogen Activated Kinase 1) (Homo sapiens, UniProt P28482)
Construct: n-terminal 6-His fusion protein in E. coli and corresponding to aa 8-360; 6-His (N)
Sequence (P28482 8-360): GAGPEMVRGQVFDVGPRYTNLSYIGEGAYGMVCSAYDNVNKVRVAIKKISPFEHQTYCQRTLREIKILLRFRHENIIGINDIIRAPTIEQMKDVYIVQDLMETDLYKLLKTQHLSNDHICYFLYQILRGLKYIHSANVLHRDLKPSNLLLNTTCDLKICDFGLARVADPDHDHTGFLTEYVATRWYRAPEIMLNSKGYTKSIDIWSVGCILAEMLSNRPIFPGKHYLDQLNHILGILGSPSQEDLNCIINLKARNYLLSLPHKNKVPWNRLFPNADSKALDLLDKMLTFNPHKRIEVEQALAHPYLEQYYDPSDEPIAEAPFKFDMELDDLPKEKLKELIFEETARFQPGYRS
Assay: ERK-2 Enzymatic Assay (Example 2)
Details: Omnia peptide S/T17, 25 μM ATP, read-out: ERK Inhibition IC50
property-label: IC50 (nM)

(I) Cc1[nH]ncc1-c1cnc2[nH]cc(-c3cnn(Cc4cccc5cccnc45)c3)c2n1
(II) Cc1n[nH]cc1-c1cnc2[nH]cc(-c3cnn(CCc4ccc(C(F)(F)F)cc4)c3)c2n1
(III) Fc1cccc(Cn2cc(-c3c[nH]c4ncc(-c5cn[nH]c5)nc34)cn2)c1
List from greatest to least IC50. When ranking, write the labels in the order the request describes.
II, I, III

(I) Cc1cc(C(=O)NCc2cncc(-c3c[nH]c4ncc(-c5cn[nH]c5)nc34)c2)no1
(II) Cc1[nH]ncc1-c1cnc2[nH]cc(-c3cnn(Cc4ccccc4C#N)c3)c2n1
Please compare: I and II . Report which one has the smaller IC50 value. Answer = label.
II

###

Molecular target: human ERK-2 (Mitogen Activated Kinase 1) (Homo sapiens)
Construct: n-terminal 6-His fusion protein in E. coli and corresponding to aa 8-360; 6-His (N); made in house; host or cells: E. coli
Test: ERK-2 Enzymatic Assay (Example 2)
Assay type: biochemical
Settings: Omnia peptide S/T17, 25 μM ATP, read-out: ERK Inhibition IC50
Description: Compounds were tested in an enzymatic assay using human ERK-2 (Mitogen Activated Kinase 1), recombinantly expressed as an n-terminal 6-His fusion protein in E. coli and corresponding to aa 8-360. […] The assay was run at ambient temperature in a white 384-well polypropylene plate (Nunc, Inc of Naperville, Ill.; Cat. 267462) collecting data every 50 seconds for approximately 30 minutes on an Envision plate reader (PerkinElmer, Inc. of Waltham, Mass.); Excitation 340 nm/Emission 495 nm. […]
pIC50: −log10 of the molar value.
property-label: pIC50

compound | pIC50
Cc1[nH]ncc1-c1cnc2[nH]cc(-c3cnn(Cc4ccc(F)cc4F)c3)c2n1 [I-1] | 8.91

(1) Cc1n[nH]c(C)c1-c1cnc2[nH]cc(-c3cnn(Cc4cccc(F)c4)c3)c2n1 [I-10]
(2) Cc1nc(C(=O)NCc2cncc(-c3c[nH]c4ncc(-c5cn[nH]c5)nc34)c2)c(C)o1 [II-5]
Please compare: 1 and 2 . Report which one has the smaller pIC50 value. Answer = label.
2
(2: 6.66, 1: 8.57)

###

Target: human ERK-2 (Mitogen Activated Kinase 1) (Homo sapiens)
Construct: n-terminal 6-His fusion protein in E. coli and corresponding to aa 8-360; 6-His (N)
Experiment: ERK-2 Enzymatic Assay (Example 2)
Conditions: Omnia peptide S/T17, 25 μM ATP, read-out: ERK Inhibition IC50
pIC50: −log10 of the molar value.
property-label: pIC50

molecule | reported-value
Cc1[nH]ncc1-c1cnc2[nH]cc(-c3cnn(Cc4cc(F)ccc4Cl)c3)c2n1 [I-24] | 8.69
Cc1n[nH]cc1-c1cnc2[nH]cc(-c3cnn(C(C)(C)c4ccccc4)c3)c2n1 [I-17] | 7.44
Cc1[nH]ncc1-c1cnc2[nH]cc(-c3cnn(Cc4ccccc4[N+](=O)[O-])c3)c2n1 [I-5] | 8.82
Cc1[nH]ncc1-c1cnc2[nH]cc(-c3cnn(Cc4cc(F)ccc4C#N)c3)c2n1 [I-27] | 7.61
Cc1[nH]ncc1-c1cnc2[nH]cc(-c3cnn([C@@H](C)c4ccccc4Cl)c3)c2n1 [I-9] | 8.55

(a) Fc1cccc(Cn2cc(-c3c[nH]c4ncc(-c5ccncc5)nc34)cn2)c1 [I-11]
(b) c1ccc(Cn2cc(-c3c[nH]c4ncc(-c5ccncc5)nc34)cn2)cc1 [I-21]
Could you kindly indicate whether a or b has the higher pIC50 value? Answer = label.
a

Data credit: patent US9382257B2
